For each of the molecules below, state its Ka.
Target: T1, CHIM (Homo sapiens, UniProt P06731, A174T/A211G/A239V/A261S/A267P/C12H/D173N/E253A/E283V/F203L/F272R/F277P/F63I/H123Q/H61N/H9C/I100T/I112V/I113T/I13V/I230T/I80V/INS244IISP/K155N/K214E/L18V/L245P/L62R/N182G/N204S/N246D/N288K/P266S/P287A/Q16K/Q78L/R139H/R17E/R198M/R224N/R250L/R77S/S228P/S280H/T171V/T206K/T210A/T217I/T247S/T276I/V221A/V273I/V291P/V55A/W11L)
T1 construct: CEACAM6 N-terminal part (fusion partner); 6xHis (C); made in house; host or cells: HEK293-based mammalian cell expression system
T1 sequence (P06731 with tags, fused parts or gaps H9C/W11L/C12H/I13V/Q16K/R17E/L18V/V55A/H61N/L62R/F63I/R77S/Q78L/I80V/I100T/I112V/I113T/H123Q/R139H/K155N/T171V/D173N/A174T/N182G/R198M/F203L/N204S/T206K/T210A/A211G/K214E/T217I/V221A/R224N/S228P/I230T/A239V/INS244IISP/L245P/N246D/T247S/R250L/E253A/A261S/P266S/A267P/F272R/V273I/T276I/F277P/S280H/E283V/P287A/N288K/V291P): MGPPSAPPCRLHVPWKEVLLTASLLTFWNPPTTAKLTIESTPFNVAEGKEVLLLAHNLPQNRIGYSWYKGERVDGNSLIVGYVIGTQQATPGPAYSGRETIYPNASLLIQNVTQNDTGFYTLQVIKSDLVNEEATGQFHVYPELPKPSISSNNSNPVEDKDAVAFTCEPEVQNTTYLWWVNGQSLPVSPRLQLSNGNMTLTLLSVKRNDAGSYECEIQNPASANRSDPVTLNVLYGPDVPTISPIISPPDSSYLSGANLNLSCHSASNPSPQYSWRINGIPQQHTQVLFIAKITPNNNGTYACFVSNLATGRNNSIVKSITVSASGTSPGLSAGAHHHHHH
Experiment: SPR affinity comparison of affinity matured humanized BGA7592 variants on CHIM
Type: binding
Conditions: Table 11, SPR to CHIM
Numeric only. Scale: M⁻¹ s⁻¹

[in] Look at this molecule and give its reported Ka. BGA2107 (antibody, human IgG1, V domains shown, Built on the BGA7592-1F-ph-M (BGA2433) template; human IgG1/kappa) VH: QVQLVQSGAEVKKPGASVKVSCKASGYIFTSYWLHWVRQAPGQGLEWIGYINPNTGYTSYAQKFQGRVTMTRDTSTSTVYMELSSLRSEDTAVYYCAREYGNYNYPLDYWGQGTLVTVSS VL: DIQMTQSPSSLSASVGDRVTITCRASENQYGYLAWYQQKPGKVPKLLIYNTKNLVEGVPSRFSGSGSGTDFTLTISSLQPEDVATYYCQHHLGTPYTFGQGTKVEIK
[out] 19800

[in] Look at this molecule and give its reported Ka. BGA0089 (antibody, human IgG1, V domains shown, Built on the BGA7592-1F-ph-M (BGA2433) template; human IgG1/kappa) VH: QVQLVQSGAEVKKPGASVKVSCKASGYIFTSYWLHWVRQAPGQGLEWIGYINPQTGYTNYAQKFQGRVTMTRDTSTSTVYMELSSLRSEDTAVYYCAREYGNYNYPLDYWGQGTLVTVSS VL: DIQMTQSPSSLSASVGDRVTITCRASENQYGYLAWYQQKPGKVPKLLIYNTKNLVEGVPSRFSGSGSGTDFTLTISSLQPEDVATYYCQHHLGTPYTFGQGTKVEIK
[out] 18400

[in] Look at this molecule and give its reported Ka. BGA8179 (antibody, human IgG1, V domains shown, Built on the BGA7592-1F-ph-M (BGA2433) template; human IgG1/kappa) VH: QVQLVQSGAEVKKPGASVKVSCKASGYIFTSYYLHWVRQAPGQGLEWIGYINPQTGYTSYAQKFQGRVTMTRDTSTSTVYMELSSLRSEDTAVYYCAREYGNYNYPLDYWGQGTLVTVSS VL: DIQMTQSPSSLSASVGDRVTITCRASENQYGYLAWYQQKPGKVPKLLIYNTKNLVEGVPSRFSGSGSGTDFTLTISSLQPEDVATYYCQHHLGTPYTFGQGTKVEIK
[out] 19900

[in] Look at this molecule and give its reported Ka. BGA7592-1F-ph-M (BGA2433): affinity matured clone of BGA7592-1F, "(SEQ ID NO:96)", "improved affinities to huCEA surface protein"; template for further engineering (protein, Synthetic: BGA7592-1F-ph-M VL, template for further engineering) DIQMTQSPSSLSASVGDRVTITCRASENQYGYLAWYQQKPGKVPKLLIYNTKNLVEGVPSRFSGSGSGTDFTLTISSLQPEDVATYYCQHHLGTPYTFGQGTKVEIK
[out] 19700
